Provenance of the data: ChEMBL document CHEMBL4699612

Target: Protein deacetylase HDAC6 (Homo sapiens)
Sequence (Q9UBN7 whole entry): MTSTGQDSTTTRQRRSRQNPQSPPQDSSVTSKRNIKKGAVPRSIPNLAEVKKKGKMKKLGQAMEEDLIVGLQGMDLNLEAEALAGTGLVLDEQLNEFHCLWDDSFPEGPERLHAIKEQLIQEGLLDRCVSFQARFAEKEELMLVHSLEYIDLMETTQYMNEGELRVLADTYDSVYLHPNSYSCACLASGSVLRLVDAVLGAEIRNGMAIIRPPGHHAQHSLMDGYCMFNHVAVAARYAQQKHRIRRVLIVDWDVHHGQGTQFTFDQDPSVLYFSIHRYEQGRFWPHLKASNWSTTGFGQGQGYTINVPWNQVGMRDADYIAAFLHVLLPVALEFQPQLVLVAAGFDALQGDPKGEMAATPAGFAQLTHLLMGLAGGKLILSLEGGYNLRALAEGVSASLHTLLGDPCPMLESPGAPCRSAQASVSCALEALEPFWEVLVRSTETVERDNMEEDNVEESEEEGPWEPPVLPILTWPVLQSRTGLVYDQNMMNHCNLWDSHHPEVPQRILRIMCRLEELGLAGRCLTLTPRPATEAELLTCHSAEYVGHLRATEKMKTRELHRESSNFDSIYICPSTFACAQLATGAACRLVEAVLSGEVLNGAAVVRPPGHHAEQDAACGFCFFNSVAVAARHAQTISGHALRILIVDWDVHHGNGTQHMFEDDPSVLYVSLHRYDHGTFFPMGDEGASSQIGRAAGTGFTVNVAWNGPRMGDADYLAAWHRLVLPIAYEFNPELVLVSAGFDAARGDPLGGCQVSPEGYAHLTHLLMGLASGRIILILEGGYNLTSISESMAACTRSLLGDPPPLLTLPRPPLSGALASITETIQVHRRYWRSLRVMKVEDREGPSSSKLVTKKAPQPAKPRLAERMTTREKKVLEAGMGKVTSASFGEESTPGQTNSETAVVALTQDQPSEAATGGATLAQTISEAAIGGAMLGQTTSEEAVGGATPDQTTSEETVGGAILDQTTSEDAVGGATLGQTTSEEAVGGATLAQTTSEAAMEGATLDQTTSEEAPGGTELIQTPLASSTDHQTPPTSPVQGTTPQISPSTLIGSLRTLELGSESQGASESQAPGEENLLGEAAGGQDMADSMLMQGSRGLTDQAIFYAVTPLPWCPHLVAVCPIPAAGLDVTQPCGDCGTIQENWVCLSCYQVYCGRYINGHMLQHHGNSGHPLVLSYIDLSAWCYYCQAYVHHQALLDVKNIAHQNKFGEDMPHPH
Test: Inhibition of recombinant human HDAC6 using Boc-Lys(Ac)-AMC as substrate incubated for 60 mins by fluorimetric assay
Readout type: IC50 (nM)

C/C(=N\NC(=S)NCCCCCC(=O)NO)c1ccc(Br)cc1 = 34.6
C/C(=N\NC(=S)NCCCCCC(=O)NO)c1cccc(Br)c1 = 37.7
C/C(=N\NC(=S)NCCCCCC(=O)NO)c1ccc(F)cc1 = 62.9
O=C(CCCCCNC(=S)N/N=C(\c1ccccc1)c1cccc([N+](=O)[O-])c1)NO = 46.8

====

biological target: UniProtKB Q13547; test: Inhibition of recombinant human HDAC1 using Boc-Lys(Ac)-AMC as substrate incubated for 60 mins by fluorimetric assay
Sequence (Q13547 whole entry): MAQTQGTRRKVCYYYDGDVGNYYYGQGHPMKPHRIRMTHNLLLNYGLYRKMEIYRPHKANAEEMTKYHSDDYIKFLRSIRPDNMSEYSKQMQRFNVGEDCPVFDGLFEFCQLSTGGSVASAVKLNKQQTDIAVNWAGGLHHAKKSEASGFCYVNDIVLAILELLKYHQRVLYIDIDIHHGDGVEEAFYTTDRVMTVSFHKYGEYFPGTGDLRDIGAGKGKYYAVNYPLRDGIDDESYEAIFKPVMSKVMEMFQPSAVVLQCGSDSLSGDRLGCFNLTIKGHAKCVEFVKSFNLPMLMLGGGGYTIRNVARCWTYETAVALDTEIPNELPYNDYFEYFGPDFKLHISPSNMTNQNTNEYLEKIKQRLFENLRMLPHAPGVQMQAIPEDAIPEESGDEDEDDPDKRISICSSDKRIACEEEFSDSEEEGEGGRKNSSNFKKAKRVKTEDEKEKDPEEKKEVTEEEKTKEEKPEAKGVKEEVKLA
Readout type: IC50 (nM)

Worked cases, answers included:
C/C(=N\NC(=S)NCCCCCC(=O)NO)c1ccc(F)cc1 = 69.2
C/C(=N\NC(=S)NCCCCCC(=O)NO)c1cccc(Br)c1 = 54.6

(I) O=C(CCCCCNC(=S)N/N=C(\c1ccccc1)c1cccc([N+](=O)[O-])c1)NO
(II) C/C(=N\NC(=S)NCCCCCC(=O)NO)c1ccc(Br)cc1
**Query** Which item exceeds the other in IC50, I or II ? In your reply, give the label of the chosen option.
**Result** I
(I: 71.1 nM, II: 38.6 nM)
